Measured protein stability index values are reported for all entries that follow.
B1: CDS2 (parent)
chain: IHSIALSTFASLIGPFGGFFASGF

Variants of: B1
Test: protein stability index of a GFP-peptide fusion (GPS, HEK-293T) (PSI 1-6); higher = more stable;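 also: lentivirally expressed fusions sorted by FACS into six bins by GFP to DsRed ratio, PSI derived from sequencing read proportions per bin multiplied by bin number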
Conditions: c terminus: a fixed tail appended
Kindly provide the number alone.

// below: answered variants
| residueChange | protein stability index |
| --- | --- |
| F20T | 3.03 |
| F16V | 2.96 |
| F16D | 3.08 |
| L6V | 3.03 |
| I13P | 2.92 |

Then there is this variant:
GET /value?item= I1Y &field=protein stability index returns 3.05
